# ASSAYED SYSTEM: T1, Human VSIG4-L-Fc (human)
# T1 construct: also called hVSIG4-L-Fc; hVSIG4-L
# T1 sequence (chain, as listed by the source limits assumed): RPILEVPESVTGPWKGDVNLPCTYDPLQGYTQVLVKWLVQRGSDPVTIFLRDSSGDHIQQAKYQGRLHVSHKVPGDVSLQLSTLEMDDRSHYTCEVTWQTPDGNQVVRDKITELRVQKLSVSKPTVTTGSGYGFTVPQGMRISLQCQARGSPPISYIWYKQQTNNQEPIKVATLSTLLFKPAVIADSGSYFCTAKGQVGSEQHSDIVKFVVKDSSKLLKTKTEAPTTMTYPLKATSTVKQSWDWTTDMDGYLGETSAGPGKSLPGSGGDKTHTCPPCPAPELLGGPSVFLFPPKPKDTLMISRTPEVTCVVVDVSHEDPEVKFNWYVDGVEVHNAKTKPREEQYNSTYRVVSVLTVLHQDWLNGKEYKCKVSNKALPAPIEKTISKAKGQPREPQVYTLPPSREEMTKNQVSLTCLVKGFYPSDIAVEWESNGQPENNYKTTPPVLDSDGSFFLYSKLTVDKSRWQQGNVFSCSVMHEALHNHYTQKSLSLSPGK
# ASSAY TEXT: ligand competition ELISA (FJB), blocked ligand iC3b
IC50 values by entry

# BINDER, IC50 (nM)
data = [
    ("14D12 mouse/human chimeric IgG4 (S228P) kappa (antibody, V domains shown) VH: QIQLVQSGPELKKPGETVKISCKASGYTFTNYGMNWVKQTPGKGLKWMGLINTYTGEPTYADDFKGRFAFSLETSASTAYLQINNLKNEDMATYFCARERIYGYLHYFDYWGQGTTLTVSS VL: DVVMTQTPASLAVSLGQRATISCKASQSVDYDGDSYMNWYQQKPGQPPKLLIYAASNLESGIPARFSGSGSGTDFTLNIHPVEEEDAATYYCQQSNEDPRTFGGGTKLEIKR", 0.6),
    ("16G02 mouse/human chimeric IgG4 (S228P) kappa (antibody, V domains shown) VH: QVQLQQSGAELMKPGASVKISCKATGYTFSSYWIEWVKQRPGHGLEWIGEILPGSSTTNYNEKFKGKATFTADTSSNTAYMQLSSLTSEDSAVYYCAREDHFITTARYAMDYWGQGTSVTVSS VL: DIVLTQSPASLAMSVGQKVTMSCKSSQSLLNSSNQKNYLAWYQQKPGQSPKLLLYFASTRESGVPDRFIGSGSGTDFTLTISSVQAEDLADYFCQQHYSNPLTFGAGTKLELKR", 1),
    ("15C03 mouse/human chimeric IgG4 (S228P) kappa (antibody, V domains shown) VH: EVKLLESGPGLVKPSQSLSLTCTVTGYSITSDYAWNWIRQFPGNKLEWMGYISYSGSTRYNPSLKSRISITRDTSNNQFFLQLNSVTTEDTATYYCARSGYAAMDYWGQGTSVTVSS VL: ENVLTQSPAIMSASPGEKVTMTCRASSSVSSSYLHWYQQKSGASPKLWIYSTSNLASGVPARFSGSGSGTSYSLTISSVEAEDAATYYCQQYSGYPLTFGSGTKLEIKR", 12.8),
    ("12A08 mouse/human chimeric IgG4 (S228P) kappa (antibody, V domains shown) VH: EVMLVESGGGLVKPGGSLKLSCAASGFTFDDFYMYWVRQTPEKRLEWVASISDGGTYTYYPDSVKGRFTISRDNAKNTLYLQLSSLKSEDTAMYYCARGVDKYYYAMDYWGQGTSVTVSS VL: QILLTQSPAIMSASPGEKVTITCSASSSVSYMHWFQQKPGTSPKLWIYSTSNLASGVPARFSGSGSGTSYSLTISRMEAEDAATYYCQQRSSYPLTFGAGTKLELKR", 0.4),
    ("13H11 mouse/human chimeric IgG4 (S228P) kappa (antibody, V domains shown) VH: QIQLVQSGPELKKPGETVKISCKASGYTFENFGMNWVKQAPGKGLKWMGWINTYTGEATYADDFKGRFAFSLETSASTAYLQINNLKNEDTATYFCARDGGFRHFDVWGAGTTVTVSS VL: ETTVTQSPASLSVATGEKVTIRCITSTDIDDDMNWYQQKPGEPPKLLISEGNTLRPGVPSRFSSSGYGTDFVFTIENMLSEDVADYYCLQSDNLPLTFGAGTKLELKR", 440),
    ("12A12 mouse/human chimeric IgG4 (S228P) kappa (antibody, V domains shown) VH: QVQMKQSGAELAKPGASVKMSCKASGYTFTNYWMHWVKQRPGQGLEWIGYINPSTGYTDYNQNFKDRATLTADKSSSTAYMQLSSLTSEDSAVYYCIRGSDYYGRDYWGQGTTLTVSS VL: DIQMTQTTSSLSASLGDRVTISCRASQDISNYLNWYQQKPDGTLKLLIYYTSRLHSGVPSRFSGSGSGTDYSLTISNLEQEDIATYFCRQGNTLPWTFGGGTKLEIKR", 0.5),
]
